system-tested: BRD9-GFP (Homo sapiens, UniProt Q9H8M2)
Construct: CHYSEL (2A cis-acting hydrolase element) remnant after GFP; mCherry is split off as a separate protein (C); expressed in transfected cells; host or cells: HEK293A cells (Invitrogen R70507), lentiviral transduction with pLenti6-BRD9-GFP-CHYSEL-mCherry, blasticidin selection
Sequence (Q9H8M2 1-597): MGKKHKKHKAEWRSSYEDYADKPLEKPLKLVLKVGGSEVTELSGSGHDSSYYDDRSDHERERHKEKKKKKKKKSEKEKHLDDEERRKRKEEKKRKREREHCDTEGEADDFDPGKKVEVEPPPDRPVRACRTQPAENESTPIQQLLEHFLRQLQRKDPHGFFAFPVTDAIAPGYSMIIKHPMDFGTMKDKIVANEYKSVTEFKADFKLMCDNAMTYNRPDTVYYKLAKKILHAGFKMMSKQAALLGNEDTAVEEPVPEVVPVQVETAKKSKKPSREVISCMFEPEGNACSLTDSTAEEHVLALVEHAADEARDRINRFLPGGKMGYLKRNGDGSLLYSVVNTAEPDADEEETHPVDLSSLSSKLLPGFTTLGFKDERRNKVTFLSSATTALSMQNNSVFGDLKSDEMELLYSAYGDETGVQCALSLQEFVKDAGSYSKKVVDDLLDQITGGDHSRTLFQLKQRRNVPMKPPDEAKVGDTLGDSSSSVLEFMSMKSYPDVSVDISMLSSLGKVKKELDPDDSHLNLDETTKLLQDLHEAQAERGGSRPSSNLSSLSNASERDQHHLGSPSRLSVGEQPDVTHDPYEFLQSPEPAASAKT
protocol: BRD9-GFP protein abundance flow cytometry assay in HEK293A cells
Format: cell-based
test-context: HEK293A-BRD9-GFP-CHYSEL-mCherry cells, 24 h at 37° C., 10-point 1:3 dilution; concentration at which 50% maximal degradation was observed
class 1 if DC50 is below 7 nM. class 0 if not; exact matches included in class 0.

Please review the entries below; each comes with its answer.
COc1cc(-c2cn(C)c(=O)c3cnccc23)c(OC)cc1CN1CCC(O[C@@H]2CCN(CCn3cccc(CN4CCC(=O)NC4=O)c3=O)C[C@H]2F)CC1 [Compound E2] | class 0
CCCCCCn1cc(-c2cc(OC)c(CCN3CCC(OC4CCN(C(=O)c5ccc(OC)c(N6CCC(=O)NC6=O)c5)CC4)CC3)c(OC)c2)c2ccncc2c1=O | class 0
COc1cc(-c2cn(C)c(=O)c3cnccc23)c(OC)cc1CN1CCC(OC2CCN(CCn3cccc(CN4CCC(=O)NC4=O)c3=O)CC2)CC1 | class 0

Lab note: DC50 threshold 7 nM. Does this compound come in strictly under it? COc1ccc(C(=O)N2CCC(CN3CCC(Oc4ccc(-c5cn(C)c(=O)c6cnccc56)cc4)CC3)CC2)cc1N1CCC(=O)NC1=O class 1

Lab note: DC50 threshold 7 nM. Does this compound come in strictly under it? CCCCn1cc(-c2ccc(O[C@H]3CCN(CC4CCN(C(=O)c5ccc(OC)c(N6CCC(=O)NC6=O)c5)CC4)C[C@@H]3F)c(OC)c2)c2ccncc2c1=O class 1

---

The following compounds are listed with their measured BRD9 Deg Amax % values.
system-tested: BRD9-GFP (Homo sapiens, UniProt Q9H8M2)
Construct: CHYSEL (2A cis-acting hydrolase element) remnant after GFP; mCherry is split off as a separate protein (C); expressed in transfected cells; host or cells: HEK293A cells (Invitrogen R70507), lentiviral transduction with pLenti6-BRD9-GFP-CHYSEL-mCherry, blasticidin selection
protocol: BRD9-GFP protein abundance flow cytometry assay in HEK293A cells
Type: cell-based
test-context: HEK293A-BRD9-GFP-CHYSEL-mCherry cells, 24 h; % protein remaining at the concentration at which maximum degradation is seen

Before answering, review these 3 worked examples.
COc1ccc(C(=O)N2CCC(OC3CCN(CCCc4c(OC)cc(-c5cn(C)c(=O)c6cnccc56)cc4OC)CC3)CC2)cc1N1CCC(=O)NC1=O | 13.01%
CCCCCCn1cc(-c2cc(OC)c(CCN3CCC(OC4CCN(C(=O)c5ccc(F)c(N6CCC(=O)NC6=O)c5)CC4)CC3)c(OC)c2)c2ccncc2c1=O | 19.85%
COc1cc(-c2cn(C)c(=O)c(C)c2C)cc(OC)c1OCC1CCN(CC2CCN(C(=O)c3ccc(Cl)c(N4CCC(=O)NC4=O)c3)CC2)CC1 | 17.02%

Kindly note: BRD9-GFP (Homo sapiens, UniProt Q9H8M2), CCCCn1cc(-c2cc(OC)c(CN3CCC(OC4CCN(CCn5cccc(CN6CCC(=O)NC6=O)c5=O)CC4)CC3)cc2OC)c2ccncc2c1=O [Compound D1] , BRD9 Deg Amax % value reported: 14.78%

Kindly note: BRD9-GFP (Homo sapiens, UniProt Q9H8M2), COc1cc(-c2cc(C)c(=O)n(C)c2)cc(OC)c1CN1CCC(OC2CCN(C(=O)COc3ccc(N4CCC(=O)NC4=O)cc3)CC2)CC1 , BRD9 Deg Amax % value reported: 16.25%

Kindly note: BRD9-GFP (Homo sapiens, UniProt Q9H8M2), CCCCn1cc(-c2cc(OC)c(CN3CC[C@@H](OC4CCN(C(=O)c5ccc(OC)c(N6CCC(=O)NC6=O)c5)CC4)[C@H](F)C3)cc2OC)c2ccncc2c1=O , BRD9 Deg Amax % value reported: 12.80%

Kindly note: BRD9-GFP (Homo sapiens, UniProt Q9H8M2), COc1cc(-c2cn(C)c(=O)c3cnccc23)c(OC)cc1CN1CC[C@@H](OC2CCN(CCn3cccc(CN4CCC(=O)NC4=O)c3=O)CC2)[C@H](F)C1 , BRD9 Deg Amax % value reported: 14.60%

Kindly note: BRD9-GFP (Homo sapiens, UniProt Q9H8M2), CCCn1cc(-c2cc(OC)c(CCN3CCC(OC4CCN(C(=O)c5ccc(Cl)c(N6CCC(=O)NC6=O)c5)CC4)CC3)c(OC)c2)c(C)c(C)c1=O , BRD9 Deg Amax % value reported: 13.73%
